# Tested on: Saccharomyces cerevisiae
# TEST_DESCRIPTION: protein stability index of tFT-peptide fusion (C-terminal peptide) (PSI (0-1 scale)); higher = more stable (slower turnover)
# COND: genetic background: wild type; temperature: 30 C
Tick 1 (yes) if protein stability index is 0.7 or greater. Tick 0 (no) if protein stability index is less than 0.7.

Q. Please indicate if the recorded protein stability index for YLGCSLAMAFSL meets or exceeds 0.7.
A. 0 (no)

Q. Please indicate if the recorded protein stability index for LMDIPGNPRSLY meets or exceeds 0.7.
A. 0 (no)

Q. Please indicate if the recorded protein stability index for LYPRPSRFPPLL meets or exceeds 0.7.
A. 1 (yes)

---

# Tested on: Saccharomyces cerevisiae
# TEST_DESCRIPTION: protein stability index of tFT-peptide fusion (C-terminal peptide) (PSI (0-1 scale)); higher = more stable (slower turnover)
# COND: genetic background: wild type; temperature: 30 C
READOUT_NAME: protein stability index
Answer field: number only, no words.

Some entries whose results are on file:
| BIOSEQUENCE | protein stability index |
| --- | --- |
| RSPYSSLHNPLC | 0.706 |
| PPHPPRCRRSPC | 0.718 |
| TRPKINKGKGTG | 0.668 |
| FVFCTCSFFFLW | 0.477 |
| PFFHFLGFSYFC | 0.684 |

Q. Please tell me: protein stability index of PCFSCPPLFLRT , system Saccharomyces cerevisiae?
A. 0.631

Q. Please tell me: protein stability index of RLIIRYESYTSD , system Saccharomyces cerevisiae?
A. 0.709

Q. Please tell me: protein stability index of CGWIQYSVSHDL , system Saccharomyces cerevisiae?
A. 0.712

Q. Please tell me: protein stability index of ARWNTDRRRRQL , system Saccharomyces cerevisiae?
A. 0.421

Q. Please tell me: protein stability index of VLSLPPLFRTSA , system Saccharomyces cerevisiae?
A. 0.636

Q. Please tell me: protein stability index of GEIGVRGYQAEE , system Saccharomyces cerevisiae?
A. 0.739

Q. Please tell me: protein stability index of HRQAFSAVPCIH , system Saccharomyces cerevisiae?
A. 0.588

Q. Please tell me: protein stability index of GDKQKKNEKNKE , system Saccharomyces cerevisiae?
A. 0.681

Q. Please tell me: protein stability index of PVTMWAGGKYYV , system Saccharomyces cerevisiae?
A. 0.718

Q. Please tell me: protein stability index of LFSRDASSFRFF , system Saccharomyces cerevisiae?
A. 0.658

Q. Please tell me: protein stability index of LLPPCYFFLTSP , system Saccharomyces cerevisiae?
A. 0.637

Q. Please tell me: protein stability index of RIGDVIRIAEIK , system Saccharomyces cerevisiae?
A. 0.729

Q. Please tell me: protein stability index of ERGKREMRKNLT , system Saccharomyces cerevisiae?
A. 0.681

Q. Please tell me: protein stability index of LAVLRFHLRRHL , system Saccharomyces cerevisiae?
A. 0.668

---

# Test system: Saccharomyces cerevisiae
# TEST_DESCRIPTION: protein stability index of tFT-peptide fusion (C-terminal peptide) (PSI (0-1 scale)); higher = more stable (slower turnover)
# COND: genetic background: wild type; temperature: 30 C
READOUT_NAME: protein stability index
Answer field: number only, no words.

Some entries whose results are on file:
| BIOSEQUENCE | protein stability index |
| --- | --- |
| SMSPPLSLFPSF | 0.841 |
| FICLLFSCVYLG | 0.41 |
| KTNWKKKERKKA | 0.675 |
| SEARCVGSVWGG | 0.757 |
| HSVVANECHQGQ | 0.766 |
| VAAEGCGAALSR | 0.627 |

Q. Fill in the blank: the reported protein stability index of GSYRSSPFKDPK is ____.
A. 0.686

Q. Fill in the blank: the reported protein stability index of PIFPFSFFLPLI is ____.
A. 0.605

Q. Fill in the blank: the reported protein stability index of IRIKKGMETGKL is ____.
A. 0.69

Q. Fill in the blank: the reported protein stability index of HYFRSIFLFVVR is ____.
A. 0.506

Q. Fill in the blank: the reported protein stability index of PPPQLRPLPQSL is ____.
A. 0.704

Q. Fill in the blank: the reported protein stability index of YIRSKPASDQFA is ____.
A. 0.709

Q. Fill in the blank: the reported protein stability index of CVGILGAVKSGM is ____.
A. 0.71

Q. Fill in the blank: the reported protein stability index of GVGLVLLGVVSG is ____.
A. 0.513

Q. Fill in the blank: the reported protein stability index of GGGEGRGGVEYG is ____.
A. 0.64

Q. Fill in the blank: the reported protein stability index of PENKSLITSPRV is ____.
A. 0.628

Q. Fill in the blank: the reported protein stability index of LFVPVFSFGFVC is ____.
A. 0.226

Q. Fill in the blank: the reported protein stability index of CYRLFPLSSFIP is ____.
A. 0.689

Q. Fill in the blank: the reported protein stability index of HDRIHWDLDLSE is ____.
A. 0.617

Q. Fill in the blank: the reported protein stability index of PLVPPPADPLCV is ____.
A. 0.63

---

The reader will find reported protein stability index values listed item by item below.
# Test system: Saccharomyces cerevisiae
# TEST_DESCRIPTION: protein stability index of tFT-peptide fusion (C-terminal peptide) (PSI (0-1 scale)); higher = more stable (slower turnover)
# COND: genetic background: wild type; temperature: 30 C

| BIOSEQUENCE | TARGET_ENTITY | protein stability index |
| --- | --- | --- |
| LFFVVFFLLFLL | Saccharomyces cerevisiae | 0.337 |
| IGYLGSELRFVS | Saccharomyces cerevisiae | 0.434 |
| IVIFQTAYVVRI | Saccharomyces cerevisiae | 0.173 |
| VVTFLCPLVGHV | Saccharomyces cerevisiae | 0.381 |

Q. Please tell me: protein stability index of LARRASCFWVRC , system Saccharomyces cerevisiae?
A. 0.303

Q. Please tell me: protein stability index of LEDVLFVMVINI , system Saccharomyces cerevisiae?
A. 0.292

Q. Please tell me: protein stability index of LKFSLLLPVQVI , system Saccharomyces cerevisiae?
A. 0.283

---

# System: Saccharomyces cerevisiae
# TEST_DESCRIPTION: protein stability index of tFT-peptide fusion (C-terminal peptide) (PSI (0-1 scale)); higher = more stable (slower turnover)
# COND: genetic background: wild type; temperature: 30 C
READOUT_NAME: protein stability index
Answer field: number only, no words.

Some entries whose results are on file:
| BIOSEQUENCE | protein stability index |
| --- | --- |
| QSVAILDGKLVW [YGL258W-A C-terminal 12 aa] | 0.65 |
| SVHLDQLLDGKE [CSI2 C-terminal 12 aa] | 0.669 |
| RVDGKIVVTPQI [RPC53 C-terminal 12 aa] | 0.694 |

Q. Fill in the blank: the reported protein stability index of RLLSLAQPPVNF [YER165C-A C-terminal 12 aa] is ____.
A. 0.703

Q. Fill in the blank: the reported protein stability index of ALNDIAKASYIY [CTK3 C-terminal 12 aa] is ____.
A. 0.648

Q. Fill in the blank: the reported protein stability index of EVDIDSLLAKLN [RLP7 C-terminal 12 aa] is ____.
A. 0.407

Q. Fill in the blank: the reported protein stability index of STKILETSANYL [RVB1 C-terminal 12 aa] is ____.
A. 0.679

Q. Fill in the blank: the reported protein stability index of YKKVQWAKVLEQ [SFG1 C-terminal 12 aa] is ____.
A. 0.726

---

# Test system: Saccharomyces cerevisiae
# TEST_DESCRIPTION: protein stability index of tFT-peptide fusion in deletion strain of DAS1 (PSI (0-1 scale)); higher = more stable (slower turnover)
The reader will find reported protein stability index values listed item by item below.
Answer field: number only, no words.

| BIOSEQUENCE | RECORDED_VALUE |
| --- | --- |
| FSMRWTFRYGVN | 0.527 |

Please turn your attention to the following entry.
Q. Fill in the blank: the reported protein stability index of LKILRQKMNHDN is ____.
A. 0.671

---

# System: Saccharomyces cerevisiae
# TEST_DESCRIPTION: protein stability index of tFT-peptide fusion (C-terminal peptide) (PSI (0-1 scale)); higher = more stable (slower turnover)
# COND: genetic background: wild type; temperature: 30 C
Tick 1 if protein stability index is 0.7 or greater. Tick -1 if protein stability index is less than 0.7.

| BIOSEQUENCE | CLASS |
| --- | --- |
| WARGGRVDDGGG | -1 |
| CLICLRSRMGDC | -1 |
| KGRGKRRGARAT | 1 |

Q. Please indicate if the recorded protein stability index for LCCTLPSRGVIV meets or exceeds 0.7.
A. -1

Q. Please indicate if the recorded protein stability index for DWAGGKMESVYR meets or exceeds 0.7.
A. -1

Q. Please indicate if the recorded protein stability index for RLTALVYFISPL meets or exceeds 0.7.
A. -1

Q. Please indicate if the recorded protein stability index for RIPLYAFLPPID meets or exceeds 0.7.
A. 1

Attribution: the supplement of paper PMC10724198
